Catalogue of glycan array binding signal (z-score) values
- Measured target: Neu5Ac(a2-3)Gal(b1-4)GlcNAc6S
- Assay method text: glycan array binding signal (z-score within array); higher = stronger binding
- Details: glycan notation: IUPAC condensed, linker removed
This is one part of a sample in which the strongest signals are shown more often than they occur.
The reply should be a number, written without any unit.

Binder	Observed property	Recorded value
HA-11100 (Pseudomonas aeruginosa), Q02G51_PSEAB (protein) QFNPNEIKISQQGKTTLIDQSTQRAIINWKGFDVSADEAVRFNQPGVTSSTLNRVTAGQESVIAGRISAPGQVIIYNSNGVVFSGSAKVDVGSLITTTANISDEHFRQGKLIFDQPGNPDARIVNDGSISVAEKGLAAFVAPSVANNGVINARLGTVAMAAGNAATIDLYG	glycan array binding signal (z-score)	-0.016

Sample CFEM-CGl (Candida glabrata), Q6FRS0 (protein) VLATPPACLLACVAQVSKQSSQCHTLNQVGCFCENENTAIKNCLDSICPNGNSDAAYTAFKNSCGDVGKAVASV ; glycan array binding signal (z-score) observed: -0.111

// sample SJCP1531 (Schistosoma japonicum) (protein) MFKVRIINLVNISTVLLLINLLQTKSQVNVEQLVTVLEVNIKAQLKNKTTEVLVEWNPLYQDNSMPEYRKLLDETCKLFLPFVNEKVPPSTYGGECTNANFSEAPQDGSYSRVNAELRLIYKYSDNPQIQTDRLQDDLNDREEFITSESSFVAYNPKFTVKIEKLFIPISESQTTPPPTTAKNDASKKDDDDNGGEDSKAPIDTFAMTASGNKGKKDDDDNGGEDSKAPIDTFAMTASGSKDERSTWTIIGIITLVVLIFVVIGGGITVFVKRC , its glycan array binding signal (z-score) was 0.004
